assay: recombinant barcode read abundance after kanamycin selection (control-corrected) (log10(CPM+1)); higher = more efficient recombination; sequences stand for … in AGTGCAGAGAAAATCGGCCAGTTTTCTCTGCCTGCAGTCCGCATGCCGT…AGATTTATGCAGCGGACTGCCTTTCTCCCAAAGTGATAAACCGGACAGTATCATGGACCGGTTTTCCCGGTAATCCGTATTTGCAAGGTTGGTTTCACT; site = the 11-nt target;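 further: IS621 recombinase and bridge RNA in Escherichia coli cells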
// recombinant barcode read abundance (log10) lookup, one value per entry
The answer should be a number; do not append a unit.

# query: recombinant barcode read abundance (log10) of entry TTCGGACCTTGGGTTCTAACCTGTTGCGG (site GGGACCACTTA)
0.677

Then TCTGATTCTTGGGTTCTAACCTGTTGCGT (site TCTTATTCTAC) ?
0.212

Then ACTGTATCTTGGGTTCTAACCTGTTGCCT (site TCTGTATCTAG) ?
0.231

Then AGCCTGGCTTGGGTTCTAACCTGTTGCCT (site AGCCTGCCTAG) ?
0.235

Then CACTCACCTTGGGTTCTAACCTGTTGCGG (site CACTTAGCTCC) ?
0.0338

Then CTGAGTACTTGGGTTCTAACCTGTTGCCT (site ATCAGTACTAG) ?
0.0653

Then ACATCTCCTTGGGTTCTAACCTGTTGCCT (site ACATCTCCTAG) ?
0.503

Then GGACCTACTTGGGTTCTAACCTGTTGCCA (site GAACCTACTTG) ?
0.0276

Then CTGGCGTCTTGGGTTCTAACCTGTTGCCT (site CTGGTGTCTAG) ?
0.0782
